Tested on: Fibroblast
assaySummary: Multiplex assay against human fibroblast
Type: toxicity, cell-based
experimentalParameters: 48 h, 1 µM, compound concentration 1 uM, number of replicates 2
Listed here are compounds together with their documented Population Pyknosed Nuclei (%).
observable: Population Pyknosed Nuclei (%)

compound	targetDesc	valueObserved
CC(C)S(=O)(=O)c1ccccc1Nc1nc(N[C@@H]2CCCN(CCCCCCCNC(=O)COc3cccc4c3C(=O)N(C3CCC(=O)N(C)C3=O)C4=O)C2)ncc1Cl (stereo not given in full)	Fibroblast	38%
Cc1ccc2c(c1CCC(=O)O)CC[C@@H](NS(=O)(=O)c1ccc(Cl)cc1)C2	Fibroblast	8%
CS(=O)(=O)c1ccc(C(=O)Nc2cccc(COc3ccc(Br)cc3CN3CCC[C@H](O)C3)c2)c(Cl)c1.O=CO	Fibroblast	12%
CS(=O)(=O)c1ccc(C(=O)Nc2cccc(COc3ccc(Br)cc3CN[C@H]3CCC[C@@H]3O)c2)c(Cl)c1.O=CO	Fibroblast	20%
CS(=O)(=O)c1ccc(NC(=O)c2cccc(COc3ccc(Br)cc3CNCCO)c2)c(Cl)c1.O=CO	Fibroblast	19%

----------
Below is a list of entries, each paired with its recorded Population Apoptotic (%) value.
Test system: Fibroblast
assaySummary: Multiplex assay against human fibroblast
Assay type: toxicity, cell-based
experimentalParameters: 48 h, 10 µM, compound concentration 10 uM, number of replicates 2
observable: Population Apoptotic (%)

                          structurenotation  targetdesc                observable  valueobserved
0  COc1nc2ccc([C@@](O)(c3ccc(Cl)cc3)c3cncn3C)cc2c(Cl)c1Cc1ccc(-n2cccn2)cc1  Fibroblast  Population Apoptotic (%)             87
1  COc1cccc(Cn2cc(C(=O)Nc3ccc(C)c(S(=O)(=O)N4CCOCC4)c3)c(-c3ccc(C)cc3)n2)c1  Fibroblast  Population Apoptotic (%)             75
2  CS(=O)(=O)c1ccc(C(=O)Nc2cc(F)cc(COc3ccc(Br)cc3CN3CC[C@H](O)C3)c2)c(Cl)c1.O=CO  Fibroblast  Population Apoptotic (%)             97
3  COc1ccc(-c2cc3c(C)nc(N)nc3n([C@H]3CC[C@H](OCCO)CC3)c2=O)cn1  Fibroblast  Population Apoptotic (%)             66
4  CN(C)C/C=C/C(=O)Nc1ccc(C(=O)Nc2cccc(Nc3ncc(Cl)c(-c4c[nH]c5ccccc45)n3)c2)cc1  Fibroblast  Population Apoptotic (%)             93

----------
Quick reference: Population Hoechst High Intensity Objects (%) of the listed items.
System: U2OS
assaySummary: Multiplex assay against U2OS
Type: toxicity, cell-based
experimentalParameters: human, 24 h, 1 µM, compound concentration 1 uM, number of replicates 2
observable: Population Hoechst High Intensity Objects (%)

                                   compound  valueobserved
0  Cc1cccc(S(=O)(=O)N(C)[C@H](C)CCN2CCC(C)CC2)c1.Cl              0
1  COc1cc(OC)cc(C(=O)NNC(=O)Nc2cccc3ccccc23)c1              0
2  COCCN1CCN(CCn2ccc(Nc3ncc4c(n3)-c3c(nn(C)c3-c3ccccc3)C[C@H]4C)n2)CC1              0
3  CCCCOc1c(C(=O)c2c(F)cc(C)cc2F)c[nH]c2nncc1-2              0
4  CC1=C(C)C(=O)C(C(C)(C)CC(=O)N(CCCCSC[C@H]2O[C@@H](n3cnc4c(N)ncnc43)[C@H](O)[C@@H]2O)Cc2cccc(-c3ccc(Cl)cc3)c2)=C(C)C1=O              0
5  CN1CCc2cc(Cl)c(O)cc2[C@@H](c2ccccc2)C1.Cl              0
6  CCNc1ccc(-c2nn(-c3ccccc3C)c3c2C(C)Cc2nc(NC(=O)OC)sc2-3)cn1.O=C(O)C(F)(F)F (centres undefined)              0
7  CCn1c(-c2nonc2N)nc2cncc(C(=O)N3CC[C@H](N)C3)c21.Cl              0
8  C=CC(=O)Nc1ccc2[nH]c(=O)n(C3CCN(Cc4ccc(-c5ccc6c(c5)NC(=O)CO6)cc4)CC3)c2c1              0
